Test system: MALME-3M melanoma
Assay: NCI tumour cell line growth inhibition, 48 h
metric_name: TGI

Worked cases, TGI given:
molecule: C=CCc1c(C)nc(C)nc1N/N=C/C=C/c1ccccc1
TGI: > 100 µM
//
molecule: Cc1ccc(-c2cc(-c3ccc(Cl)cc3)nc(/N=C3\C(=O)N(CN4CCOCC4)c4ccccc43)n2)cc1
TGI: 69.4 µM
//
molecule: NC(=O)NC(=O)CCC(NS(=O)(=O)c1ccccc1)C(=O)NC(N)=O (stereo not given)
TGI: > 100 µM

Measured TGI, `COc1ccc(C2=Nn3c(nc4sc(C)c(C)c4c3=O)SC2)cc1` : > 100 µM

Measured TGI, O=C(O)C1=C(C(=O)Nc2ccccc2)C2C=CC1C2 (stereo not given) : > 100 µM

Measured TGI, `Cc1ccccc1[P+](C)(c1ccccc1C)c1ccccc1C` : 22.9 µM

Measured TGI, `CC1(C)C=Cc2c(cc3oc4ccc5c(c4c(=O)c3c2O)C=CC(C)(C)O5)O1` : > 100 µM

###

System: KM12 colon
Assay: NCI tumour cell line growth inhibition, 48 h
TGI values by entry
Report as a plain number; the unit µM is understood.

Worked cases, TGI given:
molecule: Nc1ccccc1SC(CC(=O)c1ccccc1)c1ccc([N+](=O)[O-])cc1 (configuration not stated)
metric_name: TGI
observed_value: 14.9

molecule: CC(C)/C(Cl)=N/OC(=O)Nc1cccc(C(F)(F)F)c1
metric_name: TGI
observed_value: 29.8

molecule: CC1=C(C(=O)Nc2ccccc2C)C(c2ccc(C3C(C(=O)Nc4ccccc4C)=C(C)NC(C)=C3C(=O)Nc3ccccc3C)cc2)C(C(=O)Nc2ccccc2C)=C(C)N1
metric_name: TGI
observed_value: 4.75

Measured TGI, `Cc1cc(C(=O)Nc2nc3cccc(Cl)c3n2[C@@H]2CCCCN(C(=O)/C=C/CN(C)C)C2)ccn1` : 25.6

Measured TGI, `Cc1nc2c(O)cc3c4c(=O)n(C)c(=O)n(C)c4n(Cc4ccccc4)c3c2nc1C` : 54

###

Test system: A498 renal
Experiment: NCI tumour cell line growth inhibition, 48 h; in the data active = GI50 below about 0.43 µM; inactive = the rest
Please answer using one outcome listed in yes (1) (active), no (0) (inactive)

molecule: CCN(CC)c1ccc(C2CC(c3cc(OC)c(OC)c(OC)c3)=NN2)cc1 (stereo not drawn)
test_system: A498 renal
assigned_label: no (0)
--
molecule: Cc1ccc2c(c1)C(C)Cc1c(ncnc1-n1cnc3cc(C)ccc31)N2C (stereo not drawn)
test_system: A498 renal
assigned_label: yes (1)

--- query ---
Hi, sorry to bother you, what did the test record for `O=C(CSc1nc2ccccc2nc1-c1ccccc1)Nc1ccc(Cl)cc1` ? no (0)

###

System: NCI-H23 lung
Assay: NCI tumour cell line growth inhibition, 48 h
metric_name: TGI

Measured TGI, `Cc1[nH]n(C2=NCCN2)c(=O)c1C` : > 100 µM

Measured TGI, `COc1ccc(C2=Nn3c(nc4sc(C)c(C)c4c3=O)SC2)cc1` : > 100 µM

Measured TGI, `CN[C@@H](C)C(=O)N[C@H]1CN(C(=O)CC(C)C)CC[C@H]2CC[C@@H](C(=O)NC(c3ccccc3)c3ccccc3)N2C1=O` : > 100 µM

###

TGI values by entry
Tested on: HCT-15 colon
Assay: NCI tumour cell line growth inhibition, 48 h

Measured TGI, CCCCCCCCCCCCCCCCOCC(CN(C)CCN(C)C)OCCCCCCCCCCCCCCCC (stereo not drawn) : > 100 µM

Measured TGI, COc1ccc(-c2nsc3c2NC(=O)CC3c2ccc(F)cc2)cc1 (stereo not drawn) : > 100 µM

Measured TGI, COc1cc(Br)c(CC2(C#N)c3ccccc3C3C(N2C(=O)c2ccccc2)C3(Cl)Cl)cc1OC (stereo not drawn) : > 65.5 µM
